Tested on: RAW264.7
Assay: Antiinflammatory activity in mouse RAW264.7 cells assessed as inhibition of LPS-induced NO production by Griess reagent method
Format: functional, cell-based
For each record, write down the corresponding IC50.
Write the number in µM without appending the unit.

Lookup: I am curious: what IC50 value has been reported for `O=c1c(O)c(-c2ccc(O)c(O)c2)oc2cc(O)cc(O)c12` ?
Found: 54.3

Lookup: Now give it for `CCO[C@H](c1ccc(O)c(OC)c1)[C@@H](CO)Oc1c(OC)cc(-c2cc(=O)c3c(O)cc(O)cc3o2)cc1OC` too.
Found: 63.4

Lookup: Now give it for COc1cc([C@@H](O)[C@H](COC(=O)c2ccc(O)cc2)Oc2c(OC)cc(/C=C/COC(=O)c3ccc(O)cc3)cc2OC)cc(OC)c1O (relative stereo) too.
Found: 11.8

Lookup: Now give it for COc1cc(C(=O)C(COC(=O)c2ccc(O)cc2)Oc2c(OC)cc(/C=C/COC(=O)c3ccc(O)cc3)cc2OC)cc(OC)c1O (configuration not stated) too.
Found: 20

Lookup: Now give it for COc1cc(/C=C/COC(=O)c2ccc(O)cc2)ccc1O[C@@H](COC(=O)c1ccc(O)cc1)[C@@H](O)c1cc(OC)c(O)c(OC)c1 (relative stereo) too.
Found: 101

Lookup: Now give it for `CCO[C@@H](c1ccc(O)c(OC)c1)[C@@H](COC(=O)c1ccc(O)cc1)Oc1c(OC)cc([C@@H]2CC(=O)c3c(O)cc(O)cc3O2)cc1OC` too.
Found: 36

Lookup: Now give it for COc1cc([C@H](O)[C@H](COC(=O)c2ccc(O)cc2)Oc2c(OC)cc(/C=C/COC(=O)c3ccc(O)cc3)cc2OC)ccc1O (relative stereo) too.
Found: 52.4
